test system: UACC-62 melanoma; test: NCI-60 one-dose screen, 48 h (100 = growth as untreated, 0 = no growth, -100 = all killed); settings: 10 µM unless noted
This is part of a sample that, as a whole, favours compounds with a hit. Of some 83,000 tested, about 20% had one in any assay. Calls of active or inactive are those of the source. How the source made its calls: active means growth percent below 10; inactive means the rest.
Task for the reader: assign each of the following compounds its reported growth.

{"columns": ["smilesEntry", "measuredTarget", "observed"],
 "data": [
  ["Oc1ccc(-c2nc3ccc(/C(=N\\N=C\\c4ccc(Cl)cc4)c4ccccc4)cc3[nH]2)cc1", "UACC-62 melanoma", "84.1% (inactive)"]
]}

// each compound listed below needs its growth
1. CSc1ccc(/C(=N/N=C(N)N)c2ccc(F)cc2)cc1
2. COCCOc1ccc2ncc(C#Cc3cncc(C(=O)Nc4ccc(CN5CCN(C)CC5)c(C(F)(F)F)c4)c3)n2n1
3. COc1cc(-c2nc(-c3ccccc3)[nH]c2-c2ccnc(NCCCNS(=O)(=O)c3ccc(C)cc3)n2)ccc1F
4. CCCCOc1ccc(S(=O)(=O)N2CCN(c3nc(C)cc(N4CCOCC4)n3)CC2)cc1

1: 36.2% (inactive); 2: 31.5% (inactive); 3: 97.5% (inactive); 4: -23.6% (active)

// each compound listed below needs its growth
1. COc1ccc(NC2=C(Br)C(=O)C(C)=C(C)C2=O)cc1OC
2. NCCNC(=O)c1cccc(COc2ccccc2NC(=O)c2cc(Cl)c(Cl)[nH]2)c1
3. Clc1cccc(/C=N/Nc2nc(N/N=C/c3cccc(Cl)c3)nc(N3CCOCC3)n2)c1

1. 88% (inactive)
2. 87.3% (inactive)
3. 91.7% (inactive)

// each compound listed below needs its growth
1. CCOC(=O)c1cccc(NC2=C(Cl)C(=O)C(C)=C(C)C2=O)c1
2. COc1ccc(/C(=N\N=C(N)N)c2ccc(Cl)cc2)cc1OC
3. O=C(/C=C/c1cccc(F)c1)c1cccc(OCCCOc2cccc(C(=O)/C=C/c3cccc(F)c3)c2)c1
4. Cc1[nH]c(C(=O)Nc2ccccc2OCc2cccc(C(=O)NCCN)c2)cc1Cl

1: 94.7% (inactive); 2: 80.2% (inactive); 3: 81.3% (inactive); 4: 68.4% (inactive)

// each compound listed below needs its growth
1. C[C@]12CC[C@H]3[C@@H](CC=C4C[C@@H](O)CC[C@@]43C)[C@@H]1CC[C@@H]2[C@](C)(O)CCc1cccnc1
2. Cc1nc(N)sc1-c1csc(Nc2ccc(C(F)(F)F)cc2)n1

1: 62.6% (inactive); 2: 22.2% (inactive)
